Data provenance: the supplement of paper PMC10065799

# experimental-system: SHP2-C SH2
# experiment-summary: SH2 binding enrichment of the phosphorylated peptide, bacterial display (enrichment ratio); higher = better substrate or ligand; peptides without Tyr show the background
metric-name: SH2 binding enrichment

Some solved entries appear below for comparison.
ATRDVYNPFET [SCAMP3_Y41_L38R]; 0.658
VKANTYEKYWL [GATM_Y100_P105L]; 0.687
FAELMYTGFWH [ASS1_Y322_V321M]; 0.816
SSREGYVSHHN [FAM83B_Y433]; 0.659

a = RLPNGYGLAYR [DLK1_Y262_S260N]
b = LLINKYGLSDH [SCP2_Y151_A155D]
c = KLKPIYFHTQG [AR_Y916_V912L]
Exam item: Ranking field: SH2 binding enrichment; order: falling. // list labels; follow requested order
Marked response: c, b, a

P = VECQVYAEDPY [PCCA_Y401_R399Q]
Q = DDSNLYINVKL [MTHFD1_Y52]
R = QCTSAYPLQPE [NANS_Y188]
Exam item: Number of sequences to sort: 3. Sort criterion: SH2 binding enrichment, ascending. // list labels; follow requested order
Marked response: Q, P, R

A = LRRFIYRPPDR [OTOF_Y1231]
B = AKRKGYDMRVD [NEB_Y2770]
Exam item: Looking at recorded values for SH2 binding enrichment, does A or B come in lower? Answer with the label corresponding to your selection.
Marked response: A

A = RMGNLYDIDEN [GRIN2A_Y1246_D1251N]
B = CTTIHHNYMCN [TP53_Y234_Y234H]
Exam item: Looking at recorded values for SH2 binding enrichment, does A or B come in lower? Answer with the label corresponding to your selection.
Marked response: A

###

# experimental-system: Grb2 SH2 (UniProt P62993)
# experiment-summary: SH2 binding enrichment of the phosphorylated peptide, bacterial display (enrichment ratio); higher = better substrate or ligand; peptides without Tyr show the background
metric-name: SH2 binding enrichment

Some solved entries appear below for comparison.
HFEDGYPGGSD [CTNND1_Y221_YF]; 0.851
TLERHYKELQA [SPTBN2_Y834_E835K]; 0.773
CTTIHYNYTCN [TP53_Y234_M237T]; 1.47
TDDMRYPMKSE [TGDS_Y302_N298D]; 0.827
AIYEGYALPHA [ACTC1_Y171_P166A]; 0.792

A = SEKIVYGHLDD [ACO2_Y71]
B = EFITRYIASLK [PSMA7_Y110_YF]
Exam item: Looking at recorded values for SH2 binding enrichment, does A or B come in lower? Answer with the label corresponding to your selection.
Marked response: A

###

Measured phosphorylation enrichment by item
# experimental-system: FGFR1 (UniProt P11362)
# Sequence (P11362 whole entry, looked up): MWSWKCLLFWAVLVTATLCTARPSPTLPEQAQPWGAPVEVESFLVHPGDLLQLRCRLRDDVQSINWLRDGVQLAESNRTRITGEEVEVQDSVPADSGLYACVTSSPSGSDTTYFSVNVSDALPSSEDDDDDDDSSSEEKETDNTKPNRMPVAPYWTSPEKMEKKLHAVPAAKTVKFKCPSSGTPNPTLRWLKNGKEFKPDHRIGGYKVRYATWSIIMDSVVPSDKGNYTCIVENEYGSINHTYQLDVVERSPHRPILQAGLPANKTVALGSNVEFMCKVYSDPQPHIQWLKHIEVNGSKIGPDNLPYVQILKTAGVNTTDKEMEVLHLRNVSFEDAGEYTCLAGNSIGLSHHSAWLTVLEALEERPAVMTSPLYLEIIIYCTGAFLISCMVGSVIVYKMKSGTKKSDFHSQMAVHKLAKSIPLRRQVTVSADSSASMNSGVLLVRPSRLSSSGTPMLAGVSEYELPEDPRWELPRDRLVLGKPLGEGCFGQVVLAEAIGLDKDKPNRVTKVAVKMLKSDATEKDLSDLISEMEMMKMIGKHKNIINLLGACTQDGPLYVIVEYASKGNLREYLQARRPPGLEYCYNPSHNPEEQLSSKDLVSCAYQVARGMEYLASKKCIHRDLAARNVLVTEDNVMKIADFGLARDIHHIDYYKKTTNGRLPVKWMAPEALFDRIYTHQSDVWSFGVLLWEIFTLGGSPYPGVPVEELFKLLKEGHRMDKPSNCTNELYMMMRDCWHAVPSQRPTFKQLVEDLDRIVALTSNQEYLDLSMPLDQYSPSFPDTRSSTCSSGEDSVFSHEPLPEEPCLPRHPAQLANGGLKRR
# experiment-summary: phosphorylation enrichment, bacterial display (enrichment ratio); higher = better substrate or ligand; peptides without Tyr show the background
Simply state the number, no unit and no words.

Some solved entries appear below for comparison.
TVQVAYYTVMM [SPATA17_Y83_M86V]; 5.72
NVGGKYSFLKV [GRM3_Y478_YF]; 0.369
VNKIYHPDFIV [LIG3_Y768_Y768H]; 0.453
KIEGIYARDET [RPL35A_Y34_V33I]; 0.585
AGNPAYRSFSN [IL4R_Y497]; 0.366
DFCDLYGGEKF [PTPN11_Y66_Y63C_YF]; 0.575

Next, consider the following sequence.
Exam item: Give me measured phosphorylation enrichment, please, for this sequence: HQKKPYCHTHN [NRAP_Y53_A56T]
Marked response: 1.27

###

# experimental-system: Hck (UniProt P08631)
# Sequence (P08631 whole entry, looked up): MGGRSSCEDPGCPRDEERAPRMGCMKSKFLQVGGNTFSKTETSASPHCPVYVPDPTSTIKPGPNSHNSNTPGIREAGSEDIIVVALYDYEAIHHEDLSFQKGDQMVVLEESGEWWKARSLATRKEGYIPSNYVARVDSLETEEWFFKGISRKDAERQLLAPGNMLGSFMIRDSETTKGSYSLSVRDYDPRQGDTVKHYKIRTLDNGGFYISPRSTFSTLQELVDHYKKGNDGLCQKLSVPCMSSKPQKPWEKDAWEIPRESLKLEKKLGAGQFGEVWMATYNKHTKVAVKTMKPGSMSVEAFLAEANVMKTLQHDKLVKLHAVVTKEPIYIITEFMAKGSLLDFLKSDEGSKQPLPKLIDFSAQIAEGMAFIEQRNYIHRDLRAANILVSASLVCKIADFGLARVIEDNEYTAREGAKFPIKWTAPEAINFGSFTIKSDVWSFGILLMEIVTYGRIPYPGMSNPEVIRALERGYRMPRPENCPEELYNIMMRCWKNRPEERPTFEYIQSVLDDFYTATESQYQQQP
# experiment-summary: phosphorylation enrichment, bacterial display (enrichment ratio); higher = better substrate or ligand; peptides without Tyr show the background
metric-name: phosphorylation enrichment
Simply state the number, no unit and no words.

Some solved entries appear below for comparison.
GFKVRYATGSI [FGFR1_Y210_W213G_YF]; 0.44
GGMTEYNLVVV [KRAS_Y4_K5N]; 0.609
FGVVGYLAIMF [RNF175_Y155]; 0.655
ANVKWYRNGRE; 0.484
PSAVAYPKRSQ [MARK3_Y432_V429A]; 0.441

Exam item: Give me measured phosphorylation enrichment, please, for this sequence: PYRSIYFSSPK [MPG_Y75]
Marked response: 1.09

Exam item: Give me measured phosphorylation enrichment, please, for this sequence: ALDHKYHGGGG [HBB_Y146_A143D]
Marked response: 0.406

Exam item: Give me measured phosphorylation enrichment, please, for this sequence: NAGDFYDLFGG [PTPN11_Y63_T59A_YF]
Marked response: 3.55

Exam item: Give me measured phosphorylation enrichment, please, for this sequence: WHHTFYNELCV [ACTC1_Y93_R97C]
Marked response: 1.18

Exam item: Give me measured phosphorylation enrichment, please, for this sequence: QSSALYEDRYL [ASS1_Y83]
Marked response: 4.44

Exam item: Give me measured phosphorylation enrichment, please, for this sequence: MIHSAYALGGL [CPS1_Y590_R587H]
Marked response: 0.464

Exam item: Give me measured phosphorylation enrichment, please, for this sequence: RTTIHYNFMCN [TP53_Y234_C229R_YF]
Marked response: 0.54

Exam item: Give me measured phosphorylation enrichment, please, for this sequence: KRLAVYIDEEA [EPM2A_Y304_P301L]
Marked response: 0.496

Exam item: Give me measured phosphorylation enrichment, please, for this sequence: AAGGRYDGLVG [HARS1_Y363]
Marked response: 0.351

###

# experimental-system: Grb2 SH2 (UniProt P62993)
# experiment-summary: SH2 binding enrichment of the phosphorylated peptide, bacterial display (enrichment ratio); higher = better substrate or ligand; peptides without Tyr show the background
metric-name: SH2 binding enrichment

FGVVGYLAIMF [RNF175_Y155]; 1.11
FTRNYYVQAVL [CYBA_Y88_R90Q]; 0.839
ATPKGYEPDAS [OTC_Y223]; 0.933

1 = IGLHAYGDQFR [IDH1_Y135_R132L_YF]
2 = VFDMLYQLANL [USP24_Y1087]
3 = VRSNHYDPEED [TJP1_Y1346]
Exam item: Ranking field: SH2 binding enrichment; order: falling. // list labels; follow requested order
Marked response: 2, 3, 1
(2: 1.53, 3: 1.02, 1: 0.703)

I = PGVDRYSLGTS [C5orf42_Y1451]
II = WHHTFYNELCV [ACTC1_Y93_R97C]
III = PLKALYLQQRP [ATM_Y2969]
Exam item: Number of sequences to sort: 3. Sort criterion: SH2 binding enrichment, ascending. // list labels; follow requested order
Marked response: I, II, III

a = ATRDVYNPFET [SCAMP3_Y41_L38R]
b = ITNLLYHVVGG [GBA_Y412_W417G]
Exam item: Recorded SH2 binding enrichment values differ for a and b ; which one is higher? Answer with the label corresponding to your selection.
Marked response: b

a = AVVEPYNSLLT [TUBA1A_Y185_I188L]
b = RFLRGYRQHAY [HLA-A_Y137_D140H]
c = GEAEQYVGGGG [FAT4_Y4980]
Exam item: Ranking field: SH2 binding enrichment; order: falling. // list labels; follow requested order
Marked response: c, a, b
(c: 1.16, a: 0.786, b: 0.539)

a = PDKRIYQFTAS [SKAP2_Y197_A202S]
b = QEALEYFMKQV [PIK3CA_Y1038_M1043V]
Exam item: Recorded SH2 binding enrichment values differ for a and b ; which one is higher? Answer with the label corresponding to your selection.
Marked response: a

1 = AEMTGYVMTRW [MAPK13_Y182_V184M]
2 = KNSSIYVVANI [VNN1_Y134_N131S]
Exam item: Looking at recorded values for SH2 binding enrichment, does 1 or 2 come in lower? Answer with the label corresponding to your selection.
Marked response: 1
(1: 0.67, 2: 0.988)

I = MSNVPYVMNRG [ACAT1_Y161]
II = IYQASYYRRGD [LTK_Y676_R673Q]
Exam item: Recorded SH2 binding enrichment values differ for I and II ; which one is higher? Answer with the label corresponding to your selection.
Marked response: I
(I: 0.919, II: 0.628)

###

Measured phosphorylation enrichment by item
# experimental-system: EPHB2 (UniProt P29323)
# Sequence (P29323 whole entry, looked up): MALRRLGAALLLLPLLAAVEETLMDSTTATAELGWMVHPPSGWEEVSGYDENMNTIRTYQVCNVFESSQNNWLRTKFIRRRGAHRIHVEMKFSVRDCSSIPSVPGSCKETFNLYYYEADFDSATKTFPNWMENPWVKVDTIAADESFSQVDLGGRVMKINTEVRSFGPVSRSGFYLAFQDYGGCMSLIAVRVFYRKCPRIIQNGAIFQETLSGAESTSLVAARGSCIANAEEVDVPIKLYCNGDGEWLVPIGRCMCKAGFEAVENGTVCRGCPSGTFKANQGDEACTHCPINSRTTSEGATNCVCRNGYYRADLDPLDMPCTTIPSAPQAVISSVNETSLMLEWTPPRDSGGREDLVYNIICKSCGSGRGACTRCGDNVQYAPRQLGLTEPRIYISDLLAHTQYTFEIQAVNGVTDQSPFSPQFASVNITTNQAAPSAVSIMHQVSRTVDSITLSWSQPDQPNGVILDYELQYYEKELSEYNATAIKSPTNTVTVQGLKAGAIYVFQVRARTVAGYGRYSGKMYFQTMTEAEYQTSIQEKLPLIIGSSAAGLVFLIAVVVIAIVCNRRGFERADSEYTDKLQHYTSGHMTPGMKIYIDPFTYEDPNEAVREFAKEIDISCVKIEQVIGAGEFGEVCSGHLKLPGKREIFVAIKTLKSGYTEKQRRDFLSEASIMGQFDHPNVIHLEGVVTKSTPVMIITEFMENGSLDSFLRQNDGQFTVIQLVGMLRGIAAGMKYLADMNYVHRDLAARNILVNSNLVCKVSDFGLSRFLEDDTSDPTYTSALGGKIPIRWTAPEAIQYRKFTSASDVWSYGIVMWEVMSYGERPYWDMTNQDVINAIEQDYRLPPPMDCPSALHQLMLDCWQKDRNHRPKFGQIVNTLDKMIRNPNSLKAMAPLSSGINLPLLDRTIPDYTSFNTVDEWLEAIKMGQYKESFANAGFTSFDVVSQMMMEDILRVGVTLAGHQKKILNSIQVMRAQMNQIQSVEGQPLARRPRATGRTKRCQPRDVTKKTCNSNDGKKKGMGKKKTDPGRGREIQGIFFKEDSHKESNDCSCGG
# experiment-summary: phosphorylation enrichment, bacterial display (enrichment ratio); higher = better substrate or ligand; peptides without Tyr show the background
Simply state the number, no unit and no words.

Some solved entries appear below for comparison.
VTRAKYFIRDE [GNAS_Y339]; 0.405
SEDANYMRVSC [TTC3_Y1288_K1289M]; 1.42
NFFEFYVDDPL [GCHFR_Y48_P53L_YF]; 0.52
PLKFLYPNIDR [STAT1_Y668_K673R_YF]; 0.664
TDLAYYLVREG [ASL_Y376_K380E]; 0.706
EDAHHYLCKEV [JAK2_Y382_A377E]; 0.493

Exam item: Give me measured phosphorylation enrichment, please, for this sequence: VVDVTYDDVPI [FLNB_Y1308_E1305D]
Marked response: 1.23

Exam item: Give me measured phosphorylation enrichment, please, for this sequence: GPGLVYRVANK [FLNB_Y1833_G1834R]
Marked response: 0.436

Exam item: Give me measured phosphorylation enrichment, please, for this sequence: PLRPDYQEPSR [DDR2_Y481]
Marked response: 0.636
